MIC, Candida tropicalis 85-8, per-entry values.
Please give the number followed by its unit.

COc1cc(O)c2c(c1)C(=O)c1c(cc3c(c1O)-c1c(cc(C)c(C(=O)N[C@H](CO)C(=O)O)c1O)[C@H](O[C@@H]1O[C@H](C)[C@H](NC#N)[C@H](O[C@@H]4OC[C@@H](O)[C@H](O)[C@H]4O)[C@H]1O)[C@H]3O)C2=O ... 12.5 µg/mL

Okay, now this compound:
Lookup: Lab note: need MIC with Candida tropicalis 85-8 for entry CN[C@@H]1[C@H](O[C@@H]2OC[C@@H](O)[C@H](O)[C@H]2O)[C@@H](O)[C@H](O[C@H]2c3cc(C)c(C(=O)N[C@H](CO)C(=O)O)c(O)c3-c3c(cc4c(c3O)C(=O)c3cc(OC)cc(O)c3C4=O)[C@@H]2O)O[C@@H]1C [Pradimicin FA-1, reference compound] , please look it up.
Found: 6.3 µg/mL

====

Test system: Trichophyton mentagrophytes #4329
Assay: MIC, two-fold agar dilution, T. mentagrophytes #4329
Format: cell-based
Details: Table 3; Trichophyton mentagrophytes #4329, YMA; read-out: MIC TM-4
Measurement type: MIC (µg/mL)
Respond with the bare value in µg/mL.

The following molecules have reported results that may help.
CN[C@@H]1[C@H](O[C@@H]2OC[C@@H](O)[C@H](O)[C@H]2O)[C@@H](O)[C@H](O[C@H]2c3cc(C)c(C(=O)N[C@H](C)C(=O)O)c(O)c3-c3c(cc4c(c3O)C(=O)c3cc(OC)cc(O)c3C4=O)[C@@H]2O)O[C@@H]1C [Pradimicin A, reference compound] ... 3.1
COc1cc(O)c2c(c1)C(=O)c1c(cc3c(c1O)-c1c(cc(C)c(C(=O)N[C@H](CO)C(=O)O)c1O)[C@H](O[C@@H]1O[C@H](C)[C@H](N(C)C#N)[C@H](O[C@@H]4OC[C@@H](O)[C@H](O)[C@H]4O)[C@H]1O)[C@H]3O)C2=O [KHM-3, 4'-Cyanooradimicin FA-1] ... 50
COc1cc(O)c2c(c1)C(=O)c1c(cc3c(c1O)-c1c(cc(C)c(C(=O)N[C@H](C)C(=O)O)c1O)[C@H](O[C@@H]1O[C@H](C)[C@H](N)[C@H](O[C@@H]4OC[C@@H](O)[C@H](O)[C@H]4O)[C@H]1O)[C@H]3O)C2=O [Pradimicin C] ... 3.1

Lookup: Which measured MIC value corresponds to COc1cc(O)c2c(c1)C(=O)c1c(cc3c(c1O)-c1c(cc(C)c(C(=O)N[C@H](CO)C(=O)O)c1O)[C@H](O[C@@H]1O[C@H](C)[C@H](NC#N)[C@H](O[C@@H]4OC[C@@H](O)[C@H](O)[C@H]4O)[C@H]1O)[C@H]3O)C2=O [KHM-4, 4'-N-Cyanopradimicin FA2] ?
Found: 12.5

Lookup: Any idea what its MIC is? The molecule is COc1cc(O)c2c(c1)C(=O)c1c(cc3c(c1O)-c1c(cc(C)c(C(=O)N[C@H](C)C(=O)O)c1O)[C@H](O[C@@H]1O[C@H](C)[C@H](NC#N)[C@H](O[C@@H]4OC[C@@H](O)[C@H](O)[C@H]4O)[C@H]1O)[C@H]3O)C2=O [KHM-2, 4'-N-Cyanopradimicin C]
Found: 12.5

Lookup: Reported MIC for COc1cc(O)c2c(c1)C(=O)c1c(cc3c(c1O)-c1c(cc(C)c(C(=O)N[C@H](CO)C(=O)O)c1O)[C@H](O[C@@H]1O[C@H](C)[C@H](N)[C@H](O[C@@H]4OC[C@@H](O)[C@H](O)[C@H]4O)[C@H]1O)[C@H]3O)C2=O [Pradimicin FA-2, reference compound] : what is it?
Found: 3.1

Lookup: Fill in: MIC of CN[C@@H]1[C@H](O[C@@H]2OC[C@@H](O)[C@H](O)[C@H]2O)[C@@H](O)[C@H](O[C@H]2c3cc(C)c(C(=O)N[C@H](CO)C(=O)O)c(O)c3-c3c(cc4c(c3O)C(=O)c3cc(OC)cc(O)c3C4=O)[C@@H]2O)O[C@@H]1C [Pradimicin FA-1, reference compound] is ___
Found: 1.6

Lookup: What value of MIC has been recorded for this entry: COc1cc(O)c2c(c1)C(=O)c1c(cc3c(c1O)-c1c(cc(C)c(C(=O)N[C@H](C)C(=O)O)c1O)[C@H](O[C@@H]1O[C@H](C)[C@H](N(C)C#N)[C@H](O[C@@H]4OC[C@@H](O)[C@H](O)[C@H]4O)[C@H]1O)[C@H]3O)C2=O [KHM-1, 4'-N-Cyanogradimicin A]
Found: 25

Lookup: I'd like to know its MIC. The molecule in question is COc1cc(O)c2c(c1)C(=O)c1c(cc3c(c1O)-c1c(cc(C)c(C(=O)N[C@H](CO)C(=O)O)c1O)[C@H](O[C@@H]1O[C@H](C)[C@H](N(C)N=O)[C@H](O[C@@H]4OC[C@@H](O)[C@H](O)[C@H]4O)[C@H]1O)[C@H]3O)C2=O [KHM-5, 4'-N-Nitrosopradimicin FA-1]
Found: 6.3

Lookup: Query: MIC; subject: COc1cc(O)c2c(c1)C(=O)c1c(cc3c(c1O)-c1c(cc(C)c(C(=O)N[C@H](C)C(=O)O)c1O)[C@H](O[C@@H]1O[C@H](C)[C@H](NC(=N)N)[C@H](O[C@@H]4OC[C@@H](O)[C@H](O)[C@H]4O)[C@H]1O)[C@H]3O)C2=O [KHM-8, 4'-Guanidinopradimicin C]
Found: 3.1

Lookup: // lookup MIC for COc1cc(O)c2c(c1)C(=O)c1c(cc3c(c1O)-c1c(cc(C)c(C(=O)N[C@H](C)C(=O)O)c1O)[C@H](O[C@@H]1O[C@H](C)[C@H](NC=N)[C@H](O[C@@H]4OC[C@@H](O)[C@H](O)[C@H]4O)[C@H]1O)[C@H]3O)C2=O [KHM-9, 4'-Amidinopradimicin C]
Found: 3.1

Lookup: I'd like to know its MIC. The molecule in question is COc1cc(O)c2c(c1)C(=O)c1c(cc3c(c1O)-c1c(cc(C)c(C(=O)N[C@H](C)C(=O)O)c1O)[C@H](O[C@@H]1O[C@H](C)[C@H](N(C)N=O)[C@H](O[C@@H]4OC[C@@H](O)[C@H](O)[C@H]4O)[C@H]1O)[C@H]3O)C2=O [KHM-6, 4'-N-Nitrosopradimicin A]
Found: 3.1

Lookup: Which MIC is reported for this molecule? COc1cc(O)c2c(c1)C(=O)c1c(cc3c(c1O)-c1c(cc(C)c(C(=O)N[C@H](C)C(=O)O)c1O)[C@H](O[C@@H]1O[C@H](C)[C@H](NC(=N)N[N+](=O)[O-])[C@H](O[C@@H]4OC[C@@H](O)[C@H](O)[C@H]4O)[C@H]1O)[C@H]3O)C2=O [KHM-7, 4'-Nitroquanidinopradimicin C]
Found: 3.1
